Assay: Ultrafiltration
Settings: human, human plasma
Where a name gives a salt, the structure may show the parent alone.
Measurement label: recovery at 20 min, 10 μM (%)
Your answer is read as %, so omit the unit and give the number.

Query :: Sample `CC(=O)Nc1ccc(O)cc1` — what was its recovery at 20 min, 10 μM?
Result :: 103

Query :: Sample CC(C)(C)NCC(O)c1cc(O)cc(O)c1 (centres unmarked) — what was its recovery at 20 min, 10 μM?
Result :: 104

Query :: Sample `COc1ccc2c(c1)c(CC(=O)O)c(C)n2C(=O)c1ccc(Cl)cc1` — what was its recovery at 20 min, 10 μM?
Result :: 89.7

Query :: Sample CC(C)NCC(O)COc1cccc2ccccc12 (centres unmarked) [Propranolol HCl] — what was its recovery at 20 min, 10 μM?
Result :: 100

Query :: Sample CCCCNC(=O)NS(=O)(=O)c1ccc(C)cc1 [Tolbutamide] — what was its recovery at 20 min, 10 μM?
Result :: 97.4

Query :: Sample `CC[C@H](C)C(=O)O[C@H]1C[C@@H](C)C=C2C=C[C@H](C)[C@H](CC[C@@H]3C[C@@H](O)CC(=O)O3)[C@H]21` — what was its recovery at 20 min, 10 μM?
Result :: 87.6

Query :: Sample C[C@]12CCC(=O)C=C1CC[C@@H]1[C@@H]2[C@@H](O)C[C@@]2(C)[C@H]1CC[C@]2(O)C(=O)CO [Hydrocortisone] — what was its recovery at 20 min, 10 μM?
Result :: 104

Query :: Sample `Cc1nnc(NS(=O)(=O)c2ccc(N)cc2)s1` — what was its recovery at 20 min, 10 μM?
Result :: 99.4

Query :: Sample `O=C(CCCCCCC(=O)Nc1ccccc1)NO` — what was its recovery at 20 min, 10 μM?
Result :: 100

Query :: Sample `CC(=O)O[C@H]1C(=O)[C@@]2(C)[C@H]([C@H](OC(=O)c3ccccc3)[C@]3(O)C[C@H](OC(=O)[C@H](O)[C@@H](NC(=O)c4ccccc4)c4ccccc4)C(C)=C1C3(C)C)[C@]1(OC(C)=O)CO[C@@H]1C[C@@H]2O` — what was its recovery at 20 min, 10 μM?
Result :: 87.6

Query :: Sample `CC[C@]1(O)C[C@@H]2CN(CCc3c([nH]c4ccccc34)[C@@](C(=O)OC)(c3cc4c(cc3OC)N(C)[C@H]3[C@@](O)(C(=O)OC)[C@H](OC(C)=O)[C@]5(CC)C=CCN6CC[C@]43[C@@H]65)C2)C1` — what was its recovery at 20 min, 10 μM?
Result :: 79.1

====

Assay: Rapid equilibrium dialysis
Format: in vitro ADME
Conditions: human, plasma, pH 7.4
Measurement label: fraction unbound at 4 h, 10 μM
The response must contain the number and no unit.

Query :: Sample CC(=O)Nc1ccc(O)cc1 [Acetaminophen] — what was its fraction unbound at 4 h, 10 μM?
Result :: 0.79

Query :: Sample COc1ccc2c(c1)c(CC(=O)O)c(C)n2C(=O)c1ccc(Cl)cc1 [Indomethacin] — what was its fraction unbound at 4 h, 10 μM?
Result :: 0.002

Query :: Sample O=C(CCCCCCC(=O)Nc1ccccc1)NO [Vorinostat] — what was its fraction unbound at 4 h, 10 μM?
Result :: 0.241

Query :: Sample CC(C)(C)NCC(O)c1cc(O)cc(O)c1 (stereo not drawn) [Terbutaline] — what was its fraction unbound at 4 h, 10 μM?
Result :: 0.627

Query :: Sample CC(=O)O[C@H]1C(=O)[C@@]2(C)[C@H]([C@H](OC(=O)c3ccccc3)[C@]3(O)C[C@H](OC(=O)[C@H](O)[C@@H](NC(=O)c4ccccc4)c4ccccc4)C(C)=C1C3(C)C)[C@]1(OC(C)=O)CO[C@@H]1C[C@@H]2O [Paclitaxel] — what was its fraction unbound at 4 h, 10 μM?
Result :: 0.03

Query :: Sample CC[C@H](C)C(=O)O[C@H]1C[C@@H](C)C=C2C=C[C@H](C)[C@H](CC[C@@H]3C[C@@H](O)CC(=O)O3)[C@H]21 [Lovastatin] — what was its fraction unbound at 4 h, 10 μM?
Result :: 0.004
